Entry source: paper PMC5418314

test: Phase I plasma pharmacokinetics; format: in vivo, human; conditions: human, plasma, iv, 4.13 mg/kg, Cohort 5: 4.13 mg/kg; N = 3; 90-min IV infusion; Cycle 1 Day 3; plasma LC-MS; read-out: Peak plasma concentration, Mean (SD)
Ends that are not written are not given here.
measured.property: Cmax

In: Would you kindly share the measured Cmax for KEFLHPSKVDLPR [SOR-C13] ?
Out: 369 ng/mL

###

test: Phase I plasma pharmacokinetics; type: in vivo, human; conditions: human, plasma, iv, 6.2 mg/kg, Cohort 6: 6.2 mg/kg; N = 6; 90-min IV infusion; Cycle 1 Day 1; plasma LC-MS; read-out: AUCtau, Median
Ends that are not written are not given here.
measured.property: AUC(0-t) (ng·h/mL)
Numbers only here, please. The scale is ng·h/mL.

In: Any idea what its AUC(0-t) is? The sequence is KEFLHPSKVDLPR [SOR-C13]
Out: 570
